Biological target: neural BZD (central BZD receptor)
Test: Benzodiazepine receptor binding, neural (central) BZD
Parameters: species or system rat
Details: read-out: BENZODIAZEPINE RECEPTOR BINDING, NEURAL BZD
Procedure: Crude membranes were prepared by homogenization of a rat forebrain sample in 20 ml of ice-cold 50 mM phosphate buffer (81 mM Na^+, 9 mMK^+) buffer with a Brinkman Polytron (setting 6, 15 sec). […] The inhibition constants (Ki) were calculated from the equation Ki=IC50/(I+L/Kd), where L is the radioligand concentration and Kd is the equilibrium dissociation constant for the radioligand. […]
Would you mind telling me the reported pKi of each entry?
One number for each entry, as −log10 of the molar value.

INSERT INTO results (compound, measured_parameter, reported_result) VALUES
  ('CN1C(=O)CN=C(c2ccc(Cl)cc2)c2cc(Cl)ccc21', 'pKi', 5.14);

// next item, pKi requested
Query block: Any idea what pKi was measured for O=C1CN=C(c2ccccc2Cl)c2cc([N+](=O)[O-])ccc2N1 [CLONAZEPAM, clonazepam, reference compound] ?
Result block: 9.26
